MEASURED_ON: BRD2-BD1 (Homo sapiens (Human), UniProt P25440)
Sequence (P25440 74-180): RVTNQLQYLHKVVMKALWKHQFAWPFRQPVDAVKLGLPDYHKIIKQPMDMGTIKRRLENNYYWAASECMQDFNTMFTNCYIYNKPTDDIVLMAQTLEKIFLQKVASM
ASSAY_TEXT: competitive TR-FRET assay, BET-BD with acetylated peptide ligand
Type: binding
CONDITION_SET: BRD2-BD1; Table 11 additional modifications; read-out: 2.1 EC50
Can you tell me EC50 for the items I'm about to list?

COc1cccc(-c2ccc3c(c2)[C@H](NC(=O)OC(C)C)C[C@H](C)N3C(C)=O)c1 = 5.8 µM
CC(=O)Nc1cccc(-c2ccc3c(c2)[C@H](Nc2ccc(-c4nnnn4C)cc2)C[C@H](C)N3C(C)=O)c1 = > 52 µM
COc1cccc(N[C@@H]2C[C@H](C)N(C(C)=O)c3ccc(-c4cccc(NC(C)=O)c4)cc32)c1 = 0.93 µM
CC(=O)Nc1cccc(-c2ccc3c(c2)[C@H](Nc2ccc(C(=O)OC(C)(C)C)cc2)C[C@H](C)N3C(C)=O)c1 = 10 µM
COc1ccc(-c2ccc3c(c2)[C@H](NC(=O)OC(C)C)C[C@H](C)N3C(C)=O)cc1 = 3.6 µM

--- query ---
Req: Tell me its EC50 given CC(=O)N1c2ccc(-c3cccc(NC4CCCC4)c3)cc2[C@H](Nc2ccccc2OC(F)(F)F)C[C@@H]1C as the entry.
Resp: 20 µM

###

MEASURED_ON: BRD2-BD2 (Homo sapiens (Human), UniProt P25440)
Sequence (P25440 344-453): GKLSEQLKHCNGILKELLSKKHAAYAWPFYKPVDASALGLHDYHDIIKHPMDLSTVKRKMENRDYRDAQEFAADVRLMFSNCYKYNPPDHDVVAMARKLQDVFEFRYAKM
ASSAY_TEXT: competitive TR-FRET assay, BET-BD with acetylated peptide ligand
Type: binding
CONDITION_SET: BRD2-BD2; Table 11 additional modifications; read-out: 2.2 EC50
Can you tell me EC50 for the items I'm about to list?
Numbers only, in µM.

// worked examples, EC50 included
CC(=O)Nc1cccc(-c2ccc3c(c2)[C@H](NC(=O)Cc2ccccc2)C[C@H](C)N3C(C)=O)c1 = 2
CC(=O)Nc1cccc(-c2ccc3c(c2)[C@H](NCCCc2ccccc2)C[C@H](C)N3C(C)=O)c1 = 69
CC(=O)Nc1cccc(-c2ccc3c(c2)[C@H](Nc2ccc(C#N)cc2C)C[C@H](C)N3C(C)=O)c1 = 0.019
CC(=O)N1c2ccc(-c3cccc(N)c3)cc2[C@H](NC(=O)OC(C)C)C[C@@H]1C = 0.11
CC(=O)N1c2ccc(-c3coc4ccccc34)cc2[C@H](NC(=O)OC(C)C)C[C@@H]1C = 3.5
CC(=O)Nc1cccc(-c2ccc3c(c2)[C@H](Nc2ccc(-c4nnco4)cc2)C[C@H](C)N3C(C)=O)c1 = 0.02
COC(=O)c1ccc(N[C@@H]2C[C@H](C)N(C(C)=O)c3ccc(-c4cccc(NCC5CC5)c4)cc32)cc1 = 0.5
CC(=O)N1c2ccc(-c3cccc(NCC4CC4)c3)cc2[C@H](NC(=O)OC(C)C)C[C@@H]1C = 0.36
CC(=O)N1c2ccc(-c3cccc(NCCC(C)C)c3)cc2[C@H](NC(=O)OC(C)C)C[C@@H]1C = 40

--- query ---
Req: Tell me its EC50 given CC(=O)Nc1cccc(-c2ccc3c(c2)[C@H](Nc2cccc4cccnc24)C[C@H](C)N3C(C)=O)c1 as the entry.
Resp: 10

###

MEASURED_ON: BRDT(2) (Homo sapiens (Human), UniProt Q58F21)
ASSAY_TEXT: BROMOscan KD determination
CONDITION_SET: BROMOscan, Table 10
PROPERTY: Kd (nM)
Give bare numbers, in nM.

// worked examples, Kd included
CC(=O)Nc1cccc(-c2ccc3c(c2)[C@H](Nc2ccc4ncccc4c2)C[C@H](C)N3C(C)=O)c1 [compound 13] = 6.9
CC(=O)Nc1cccc(-c2ccc3c(c2)[C@H](Nc2ccccc2OC(F)(F)F)C[C@H](C)N3C(C)=O)c1 [compound 19] = 11

--- query ---
Req: Tell me its Kd given COC(=O)c1ccc(N[C@@H]2C[C@H](C)N(C(C)=O)c3ccc(-c4cccc(NCCC(F)(F)F)c4)cc32)cc1 [compound 47] as the entry.
Resp: 8.1

###

Can you tell me Kd for the items I'm about to list?
MEASURED_ON: BRD3(2) (Homo sapiens (Human))
Sequence (Q15059 306-415): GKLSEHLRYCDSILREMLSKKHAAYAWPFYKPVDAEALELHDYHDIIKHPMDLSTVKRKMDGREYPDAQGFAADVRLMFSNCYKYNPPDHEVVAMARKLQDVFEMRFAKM
ASSAY_TEXT: BROMOscan KD determination
CONDITION_SET: BROMOscan, Table 10

// worked examples, Kd included
CC(=O)Nc1cccc(-c2ccc3c(c2)[C@H](Nc2ccccc2OC(F)(F)F)C[C@H](C)N3C(C)=O)c1 = 1.3 nM
COC(=O)c1ccc(N[C@@H]2C[C@H](C)N(C(C)=O)c3ccc(-c4ccnn4C)cc32)cc1 = 1.6 nM

--- query ---
Req: Tell me its Kd given CC(=O)Nc1cccc(-c2ccc3c(c2)[C@H](Nc2ccc4ncccc4c2)C[C@H](C)N3C(C)=O)c1 as the entry.
Resp: 0.78 nM

###

Can you tell me IC50 for the items I'm about to list?
MEASURED_ON: BRD3-BD1 (Homo sapiens (Human))
Sequence (Q15059 34-140): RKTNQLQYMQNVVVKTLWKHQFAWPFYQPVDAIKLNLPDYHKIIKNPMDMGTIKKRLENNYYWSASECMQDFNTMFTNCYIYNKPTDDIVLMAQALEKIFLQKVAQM
ASSAY_TEXT: competitive TR-FRET assay, BET-BD with acetylated peptide ligand
CONDITION_SET: Table 2, inhibitor potency by TR-FRET
Give bare numbers, in nM.

// worked examples, IC50 included
CC(=O)N1c2ccc(-c3cc[nH]c3)cc2[C@H](NC(=O)OC(C)C)C[C@@H]1C = 260
CC(=O)N1c2ccc(-c3cccs3)cc2[C@H](NC(=O)OC(C)C)C[C@@H]1C = 1200

Req: Tell me its IC50 given CC(=O)N1c2ccc(-c3ccsc3)cc2[C@H](NC(=O)OC(C)C)C[C@@H]1C as the entry.
Resp: 3100

###

MEASURED_ON: BRD3-BD1 (Homo sapiens (Human))
ASSAY_TEXT: competitive TR-FRET assay, BET-BD with acetylated peptide ligand
Type: binding
CONDITION_SET: BRD3-BD1; Table 11 additional modifications; read-out: 3.1 EC50
PROPERTY: EC50

// worked examples, EC50 included
CC(=O)Nc1cccc(-c2ccc3c(c2)[C@H](Nc2cccc4cccnc24)C[C@H](C)N3C(C)=O)c1 = > 4.9 µM
CC(=O)N1c2ccc(-c3cccc(CN)c3)cc2[C@H](NC(=O)OC(C)C)C[C@@H]1C = 1.4 µM

--- query ---
Req: Would you please give the reported EC50 of COc1cc(F)ccc1N[C@@H]1C[C@H](C)N(C(C)=O)c2ccc(-c3cccc(CNCC(F)(F)F)c3)cc21 with BRD3-BD1 (Homo sapiens (Human))?
Resp: > 30 µM

###

Can you tell me EC50 for the items I'm about to list?
MEASURED_ON: BRD2-BD2 (Homo sapiens (Human))
ASSAY_TEXT: competitive TR-FRET assay, BET-BD with acetylated peptide ligand
Format: binding
CONDITION_SET: BRD2-BD2; Table 11 additional modifications; read-out: 2.2 EC50
Give bare numbers, in nM.

// worked examples, EC50 included
CC(=O)Nc1cccc(-c2ccc3c(c2)[C@H](Nc2ccc4c(c2)CCNC4)C[C@H](C)N3C(C)=O)c1 [compound 188] = 4
CC(=O)N1c2ccc(-c3ccc(Oc4ccccc4)cc3)cc2[C@H](NC(=O)OC(C)C)C[C@@H]1C [compound 61] = 2100
CC(=O)N1c2ccc(-c3cccc(NCC(C)C)c3)cc2[C@H](NC(=O)OC(C)C)C[C@@H]1C [compound 96] = 790
CC(=O)N1c2ccc(-c3cccc(NC(=O)CCc4ccccc4)c3)cc2[C@H](NC(=O)OC(C)C)C[C@@H]1C [compound 116] = 380
CCOC(=O)c1ccc(-c2ccc3c(c2)[C@H](NC(=O)OC(C)C)C[C@H](C)N3C(C)=O)o1 [compound 83] = 1600
CC(=O)N1c2ccc(-c3cc4ccccc4o3)cc2[C@H](NC(=O)OC(C)C)C[C@@H]1C [compound 86] = 27000
CC(=O)Nc1cccc(-c2ccc3c(c2)[C@H](NCc2ccccc2)C[C@H](C)N3C(C)=O)c1 [compound 63] = 2400
CC(=O)Nc1cccc(-c2ccc3c(c2)[C@H](Nc2ccc(CN)cc2)C[C@H](C)N3C(C)=O)c1 [compound 26] = 23

List the reported EC50 of each molecule below.
1. CC(=O)Nc1cccc(-c2ccc3c(c2)[C@H](NC(=O)c2ccc(F)cc2)C[C@H](C)N3C(C)=O)c1 [compound 68]
2. C#CCCNC(=O)c1ccc(N[C@@H]2C[C@H](C)N(C(C)=O)c3ccc(-c4cccc(NC(C)=O)c4)cc32)cc1 [compound 139]
3. CC(=O)N1c2ccc(-c3cccc(NCC4CCOC4)c3)cc2[C@H](NC(=O)OC(C)C)C[C@@H]1C (some centres unmarked) [compound 105]
4. CC(=O)Nc1cccc(-c2ccc3c(c2)[C@H](NC(=O)OC(C)C)C[C@H](C)N3C(C)=O)c1 [compound 1]
5. CC(=O)Nc1cccc(-c2ccc3c(c2)[C@H](Nc2ccc4c(c2)OCO4)C[C@H](C)N3C(C)=O)c1 [compound 14]
6. CC(=O)Nc1cccc(-c2ccc3c(c2)[C@H](Nc2ccc(C(C)=O)cc2)C[C@H](C)N3C(C)=O)c1 [compound 17]
7. COc1ccc(N[C@@H]2C[C@H](C)N(C(C)=O)c3ccc(-c4cccc(NC(C)=O)c4)cc32)cc1 [compound 18]

Resp:
10000
230
30
290
90
70
110
